# system under test: Urea transporter 2 (Rattus norvegicus)
# Sequence (Q62668 whole entry): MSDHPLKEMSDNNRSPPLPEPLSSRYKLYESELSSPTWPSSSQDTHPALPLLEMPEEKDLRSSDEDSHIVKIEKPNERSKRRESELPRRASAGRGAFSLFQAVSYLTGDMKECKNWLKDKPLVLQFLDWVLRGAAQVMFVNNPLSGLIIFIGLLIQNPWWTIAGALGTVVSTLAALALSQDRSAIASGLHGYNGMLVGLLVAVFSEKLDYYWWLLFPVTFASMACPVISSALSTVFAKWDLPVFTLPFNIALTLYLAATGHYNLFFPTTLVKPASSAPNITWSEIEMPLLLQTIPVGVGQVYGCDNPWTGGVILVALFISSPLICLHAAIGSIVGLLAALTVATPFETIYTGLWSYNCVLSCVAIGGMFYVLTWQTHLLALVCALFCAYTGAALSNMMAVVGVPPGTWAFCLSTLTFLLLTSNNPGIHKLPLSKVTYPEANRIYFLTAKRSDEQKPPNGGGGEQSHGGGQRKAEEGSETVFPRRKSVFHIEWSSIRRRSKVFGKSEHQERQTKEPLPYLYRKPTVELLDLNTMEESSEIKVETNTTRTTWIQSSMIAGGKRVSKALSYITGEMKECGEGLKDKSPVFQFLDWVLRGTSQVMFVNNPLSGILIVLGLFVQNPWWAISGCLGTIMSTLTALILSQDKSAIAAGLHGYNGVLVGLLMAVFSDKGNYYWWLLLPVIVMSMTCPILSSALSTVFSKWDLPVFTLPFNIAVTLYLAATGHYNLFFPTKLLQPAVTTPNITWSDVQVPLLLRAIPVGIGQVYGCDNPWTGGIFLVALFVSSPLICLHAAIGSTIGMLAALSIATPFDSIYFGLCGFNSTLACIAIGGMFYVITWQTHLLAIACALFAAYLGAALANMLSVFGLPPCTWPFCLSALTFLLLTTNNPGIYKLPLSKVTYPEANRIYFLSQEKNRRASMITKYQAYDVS
# experiment: Inhibition of rat UT-A1 expressed in MDCK cells incubated for 15 mins by fluorescence plate reader assay
pIC50: −log10 of the molar value.
Assign class by pIC50: not lower than 6 means class 1; lower than 6 means class 0.

Prompt: Kindly determine if pIC50 recorded for COc1ccc(Cl)cc1S(=O)(=O)Nc1ccc(Oc2nc3cc(Cl)c(Cl)cc3n3cnnc23)cc1 is above or exactly 6.
Response: class 0

Prompt: Assess whether reported pIC50 for Cc1ccc(C)c(S(=O)(=O)Nc2ccc(Oc3nc4ccccc4n4c(C)nnc34)cc2)c1 sits at 6 or higher.
Response: class 0

Prompt: API: above_or_equal(metric=pIC50, cutoff=6) for item COc1ccc(C)cc1S(=O)(=O)Nc1ccc(Oc2nc3ccccc3n3c(C(C)C)nnc23)cc1
Response: class 1

Prompt: Tell me whether pIC50 is at least 6 here: CCCCc1nnc2c(Oc3ccc(NS(=O)(=O)c4cc(Cl)ccc4OC)cc3)nc3ccccc3n12
Response: class 1

Prompt: # check: pIC50 of COc1ccc(Cl)cc1S(=O)(=O)Nc1ccc(Oc2nc3cc(C)c(C)cc3n3cnnc23)cc1 is greater than or equal to 6
Response: class 0

Prompt: For this molecule, is measured pIC50 6 or higher? CCCCc1nnc2c(Oc3ccc(NS(=O)(=O)c4cc(C)ccc4OC)cc3)nc3ccccc3n12
Response: class 1

Prompt: Kindly determine if pIC50 recorded for COc1ccc(C)cc1S(=O)(=O)Nc1ccc(Oc2nc3ccccc3n3c(C)nnc23)cc1 is above or exactly 6.
Response: class 0

Prompt: Item Cc1ccccc1S(=O)(=O)Nc1ccc(Oc2nc3ccccc3n3cnnc23)cc1 with pIC50 of 6 or above?
Response: class 0

Prompt: Determine whether this molecule has pIC50 no lower than 6: CC(=O)Nc1ccc(-c2noc(C3CCCN(C(=O)c4ccccc4F)C3)n2)cc1 (stereo unspecified)
Response: class 0

Prompt: Does the reported pIC50 for COc1ccc(Cl)c(S(=O)(=O)Nc2cccc(Oc3nc4ccccc4n4cnnc34)c2)c1 fall at or above the 6 mark?
Response: class 0
